# Tested on: MDA-MB-435
# ASSAY_OVERVIEW: NCI tumour cell line growth inhibition, 48 h
Documented TGI across a set of compounds
EXPERIMENTAL_READOUT: TGI

compound="CCOC(=O)c1c(-c2ccc(Cl)cc2)c(C#N)c(=S)n(C2OC(COC(C)=O)C(OC(C)=O)C(OC(C)=O)C2OC(C)=O)c1-c1ccccc1 (stereo not drawn)" meas_value="> 100 µM"
compound=CCOC(=O)c1c(C)n(Cc2ccccc2)c2c1cc(O)c1[nH]c(Cc3ccccc3)nc12 meas_value="> 100 µM"
compound=CC(C)(C)c1ccc(OC(=O)Nc2ccc(O)c(C(=O)O)c2)cc1 meas_value="> 100 µM"

---

# System: HCT-15 colon
# ASSAY_OVERVIEW: NCI tumour cell line growth inhibition, 48 h; in the data active means GI50 below about 0.43 µM; inactive means the rest
Outcomes: 1 = active, 0 = inactive

compound=FC(F)(F)c1ccc(-c2cnc(-n3cc(COCCN4CCCCC4)nn3)nc2NC2CCCCCC2)cc1 label_value=0
compound=Clc1ccc(-c2csc(Nc3cccc(-c4csc(-c5ccccc5)n4)c3)n2)cc1 label_value=0
compound=CCOC(=O)c1c(C)n(Cc2ccccc2)c2c1cc(O)c1[nH]c(Cc3ccccc3)nc12 label_value=0
compound=COc1cccc(-c2nn(-c3ccccc3)cc2-c2ccnc(NCCNC(=O)Nc3cccc(C(F)(F)F)c3)c2)c1 label_value=0
compound=Cc1ccc(/C=C2\CN(C(=O)C(Cl)Cl)C/C(=C\c3ccc(C)cc3)C2=O)cc1 label_value=1
compound=COc1ccc2c(C3(c4cn(C)c5cc(OC)ccc45)C(=O)Nc4ccc(Cl)cc43)cn(C)c2c1 label_value=0
compound=Cn1nc(-c2ccc(Cl)cc2)nc2c(=O)n(C)c(=O)nc1-2 label_value=0
compound=CC1=CC(=O)C(C(C)C)=CC1=Nc1cc(Br)c(O)c(Br)c1 label_value=0
compound="COc1ccc(/C=c2\\sc3n(c2=O)C2C(NN=3)N(C)C(=O)N2C)cc1 (stereo unspecified)" label_value=0
compound=Oc1ccc(-c2nc3ccc4[nH]ncc4c3c3c2CCCC3)c(F)c1 label_value=0
compound=N[C@@H]1C(=O)N2C(C(=O)OC(c3ccccc3)c3ccccc3)=C(CCl)CS[C@H]12 label_value=0

---

# Test system: CAKI-1 renal
# ASSAY_OVERVIEW: NCI tumour cell line growth inhibition, 48 h; in the data active = GI50 below about 0.43 µM; inactive = the rest
Outcomes: active, inactive

compound=CCOC(=O)c1c(C)n(Cc2ccccc2)c2c1cc(O)c1[nH]c(Cc3ccccc3)nc12 label_value=inactive
compound="COC1=C(C)C(=O)c2c(c(CCCl)c3n2CCC3O)C1=O (stereo not drawn)" label_value=inactive
compound=Cc1cc2cc3ccc(N(C)C)cc3nc2cc1N label_value=active
compound=CCN(Cc1ccc(F)cc1)c1ccc(CO)c(C)c1 label_value=inactive
compound="N#Cc1c(Br)n(C2OC(CO)C(O)C2O)c2ncnc(N)c12 (stereo not drawn)" label_value=inactive
compound=Oc1ccc(O)c(-c2cc(-c3ccc(Cl)cc3)nn2-c2ccccc2)c1 label_value=inactive
compound=CN(Cc1cccc(F)c1)c1ccc(CO)c(Cl)c1 label_value=inactive
compound=C=C1C(=O)O[C@H]2[C@H]1CC/C(COC(=O)CCSCCC(=O)OC/C1=C/CC[C@@]3(C)O[C@H]3[C@H]3OC(=O)C(=C)[C@@H]3CC1)=C\CC[C@@]1(C)O[C@@H]21 label_value=inactive

---

# System: SW-620 colon
# ASSAY_OVERVIEW: NCI tumour cell line growth inhibition, 48 h
Documented TGI across a set of compounds
EXPERIMENTAL_READOUT: TGI

compound="COc1cccc(/C=N/NC(=S)NC2CC3CCC2C3)c1O (stereo unspecified)" meas_value="> 100 µM"
compound="CCCCCCNC(=O)CCC(NC(=O)c1ccc(N(C)Cc2cnc3nc(N)nc(N)c3n2)cc1)C(=O)NCCCCCC (stereo unspecified)" meas_value="> 100 µM"
compound=S=C(Nc1ccc(N=Nc2ccccc2)cc1)SCc1ccccc1 meas_value="44.5 µM"
compound="O=C(CC1(O)C(=O)Nc2ccc(Br)cc21)c1ccc(Cl)cc1Cl (stereo unspecified)" meas_value="> 100 µM"
compound="O=C(O)C1CC2(C1)CC(C(=O)O)C2 (stereo unspecified)" meas_value="> 100 µM"
compound="O=C1C2=C(c3ccccc31)C(c1ccccc1)N1C(=O)CSC1=N2 (stereo unspecified)" meas_value="> 100 µM"
compound=COc1ccccc1C1=C(Nc2ccccc2)C(=O)NC1=O meas_value="> 25 µM"
compound="CC1(C)C(=O)c2ccccc2OC1N1CCN(C2Oc3ccccc3C(=O)C2(C)C)CC1 (stereo unspecified)" meas_value="> 100 µM"
compound=COc1ccc2c(C3(c4cn(C)c5cc(OC)ccc45)C(=O)Nc4ccc(Cl)cc43)cn(C)c2c1 meas_value="> 100 µM"
compound=O=C1C=CC(=C(c2ccc(O)cc2)c2ccc(O)cc2)C=C1 meas_value="25.5 µM"
compound=O=C(CN1CCN(c2cc3c(cc2F)c(=O)c(C(=O)O)cn3C2CC2)CC1)Nc1nc(-c2ccc(Cl)cc2)cs1 meas_value="16.7 µM"
compound="Cc1cn(C2CC(N)C(C(=O)NCC(=O)O)O2)c(=O)[nH]c1=O (stereo unspecified)" meas_value="> 100 µM"
compound=CN(Cc1cccc(F)c1)c1ccc(CO)c(Cl)c1 meas_value="> 100 µM"
compound=COC(=O)[C@H]1NC(=O)CCSSC1(C)C meas_value="> 100 µM"
compound=C/C(=C\c1ccccc1)C(=O)NCc1ccc(C(=O)NCCc2ccccc2)cc1 meas_value="> 100 µM"
compound=CNC(=S)N/N=C(\C(=N/NC(=S)NC)c1ccccn1)c1ccccn1 meas_value="> 100 µM"
compound=O=C(NC1CCCCC1)c1cc2ccccc2cc1O meas_value="> 100 µM"
compound=Oc1ccc(-c2nc3ccc4[nH]ncc4c3c3c2CCCC3)c(F)c1 meas_value="8.29 µM"
compound="CN(CCO)CCCC1COc2ccccc2O1 (stereo unspecified)" meas_value="> 100 µM"
compound="CCC/C=C1\\CCC(CN(C)C)C1=O (stereo unspecified)" meas_value="11.6 µM"
compound=Cc1noc2c1C(=O)CCC2 meas_value="> 100 µM"

---

Documented TGI across a set of compounds
# System: T-47D breast
# ASSAY_OVERVIEW: NCI tumour cell line growth inhibition, 48 h
EXPERIMENTAL_READOUT: TGI

compound="CC(C)CCCC(C)[C@H]1CC[C@H]2[C@@H]3CC[C@H]4C[C@@H](CCC=C(c5cc(Cl)c(O)c(C(=O)OC(C)C)c5)c5cc(Cl)c(O)c(C(=O)OC(C)C)c5)CC[C@]4(C)[C@H]3CC[C@]12C (some centres not stated)" meas_value="> 50 µM"
compound=Cc1c(-c2ccccc2)nn2cc(-c3ccccc3)nnc12 meas_value="> 100 µM"
compound=O=c1oc2ccc([N+](=O)[O-])cc2c(Nc2ccc3c(c2)Sc2ccccc2O3)c1[N+](=O)[O-] meas_value="> 100 µM"
compound=COc1cc2oc(=O)cc(C)c2cc1O meas_value="> 100 µM"
compound="c1ccc(CN[C@]23C4C5CC6C7C5C2C7[C@@](NCc2ccccc2)(C64)N3Cc2ccccc2)cc1 (some centres not stated)" meas_value="> 100 µM"
compound="CCOC(=O)c1c(-c2ccc(Cl)cc2)c(C#N)c(=S)n(C2OC(COC(C)=O)C(OC(C)=O)C(OC(C)=O)C2OC(C)=O)c1-c1ccccc1 (configuration not stated)" meas_value="> 100 µM"
compound=Cc1cc(Nc2nc(-c3cccnc3)nc3ccccc23)n[nH]1 meas_value="> 75.4 µM"
compound=CCOC(=O)c1nc2ccccc2nc1Oc1ccc(C(=O)OC)cc1 meas_value="> 100 µM"
compound=CCOC(=O)c1cc(I)c(-c2cc(C)no2)n1C meas_value="> 100 µM"
compound=CC(C)(C)c1ccc(OC(=O)Nc2ccc(O)c(C(=O)O)c2)cc1 meas_value="> 100 µM"
compound=NNc1nncc2[nH]cnc12 meas_value="> 100 µM"
compound=Cc1ccc2c(=O)c(C(=O)Nn3c(C)csc3=S)c[nH]c2n1 meas_value="> 100 µM"

---

# System: HS 578T breast
# ASSAY_OVERVIEW: NCI tumour cell line growth inhibition, 48 h
Documented TGI across a set of compounds
EXPERIMENTAL_READOUT: TGI

compound=CN(Cc1cccc(F)c1)c1ccc(CO)c(Cl)c1 test_system="HS 578T breast" experimental_readout=TGI meas_value="> 100 µM"
compound="COC12CCCN1c1ccn(Cc3ccccc3)c(=O)c1C2=O (stereo not drawn)" test_system="HS 578T breast" experimental_readout=TGI meas_value="> 100 µM"
compound="CCOc1cc(Br)c(C(C)NC(=O)c2cccc(OC)c2)cc1OCC (stereo not drawn)" test_system="HS 578T breast" experimental_readout=TGI meas_value="> 96.6 µM"

---

# Tested on: HCC-2998 colon
# ASSAY_OVERVIEW: NCI tumour cell line growth inhibition, 48 h
EXPERIMENTAL_READOUT: TGI

molecule="O=c1[nH]c(=O)n(C2CC(O)C(CO)O2)cc1NN=NCCCc1ccccc1 (stereo not given)" experimental_readout=TGI meas_value="> 100 µM"
molecule=O=C(O)c1cn(C2CC2)c2cc(N3CCN(C(=O)Nc4nc(-c5ccccc5)cs4)CC3)c(F)cc2c1=O experimental_readout=TGI meas_value="> 100 µM"
molecule=Cc1nnc2c3nnc(C)n3c3ccccc3n12 experimental_readout=TGI meas_value="> 100 µM"
molecule="CCOC(=O)c1c(-c2ccc(Cl)cc2)c(C#N)c(=S)n(C2OC(COC(C)=O)C(OC(C)=O)C(OC(C)=O)C2OC(C)=O)c1-c1ccccc1 (stereo not given)" experimental_readout=TGI meas_value="> 100 µM"
molecule=S=c1[nH]nc(Cc2ccccc2)c(=S)[nH]1 experimental_readout=TGI meas_value="> 71.8 µM"

Hello, the source for this data is PubChem BioAssay (NCI), in case you need it.
